Origin of values: patent US20160228506A1

I'd appreciate it if you could supply % Remaining at 10 min values for the items below.
test: SGF digest of 168 nutritive polypeptide library, intact protein by LC-MS/MS; type: in vitro ADME; conditions: 168 nutritive polypeptide library, LC-MS/MS
Give bare numbers, in %.

{"columns": ["molecule", "unit", "% Remaining at 10 min"],
 "data": [
  ["SEQID-00502: protein of the 168 nutritive polypeptide library (protein, Glycine max, protein of the 168 nutritive polypeptide library) MASQSNTKSVHDFTVKDARGNNVNLADYKGKVLLIVNVASQCGLTNSNYTELNQLYEKYKGKGLEILAFPCNQFGAQEPGTNEEIVEFACTRFKAEFPIFDKVDVNGDNAAPLYKFLKSSKGGLFGDSIKWNFSKFLVDKDGNVVDRYAPTTSPLSIEKDIKKLLDA", "%", 9.7],
  ["SEQID-00606: protein of the 168 nutritive polypeptide library (protein, Glycine max, protein of the 168 nutritive polypeptide library) MASEGDHHHHHHHHQDHDHHHHDHDHHHHHDGEGETNSWVGKDGKVYHSHDGLAPHSHEPIYSPGYFTRRAPPLLNRNFNERAFTVGIGGPVGTGKTALMLALCELLRENYSLAAVTNDIFTKEDGEFLVKHKALPEERIRAVETGGCPHAAIREDISINLGPLEELSNLFKADILLCESGGDNLAANFSRELADYIIYIIDVSGGDKIPRKGGPGITQADLLVINKTDLAPAIGADLAVMQRDALRMRDGGPFVFAQVKHKIGVEEIGNLVLQAWEAATGNKRH", "%", 0],
  ["SEQID-00485: nutritive polypeptide naturally produced in Chickpea, recombinantly expressed in E. coli (protein, listed as Cicer arietinum) MTKTGYINAAFRSSRNNEAYLFINDKYVLLDYAPGTSNDKVLYGPSFVRDGYKSLAKTIFGTYGIDCSFDTEYNEAFIFYENFCARIDYAPHSDKDKIISGPKKIADMFPFFKGTVFENGIDAAFRSTKGKEVYLFKGDKYARIDYLTNRLVQNIKSISDGFPCLRGTIFEAGMDSAFASHKTNEAYLFKGEYYARINFTPGSTNDIMGGVKKTLDYWPSLRGIIPLE", "%", 0]
]}

Next molecule, please.
// query % Remaining at 10 min value for entry SEQID-00511: protein of the 168 nutritive polypeptide library (protein, Arthrospira platensis C1, protein of the 168 nutritive polypeptide library) MVLFGFGKKKSLPKPEEALPGRDRVMSVPDRHYINGNPLKPPFPEGMEQAVFGLGCFWGAERKFWQQQGVFSTAVGYAGGYTKNPTYEEVCSGMTGHTEVVLVVFDPKVISYTDLLKLFWESHNPTQGMRQGNDTGTQYRSAIYTYSDEQQRLALASRDRYQQALSAASYGEITTEIAPAQEFYYAEAYHQQYLGKNPNGYCGLGGTGVGCPAMTETSV
4.3
